- ASSAY_PROTOCOL: Solubility in water, FaSSGF and FaSSIF (slurry, HPLC)
- Assay type: physicochemical
- CONDITION_INFO: water, 37 °C, water, thermodynamic from solid, water, slurried at 37° C. for 2 days; read-out: Solubility in Water
MEASURED_PROPERTY: solubility at 2 days (µg/mL)
Write the number in µg/mL without appending the unit.

Req: Note down solubility at 2 days recorded for Cl.N#Cc1cccc(-c2ccc3ncc(-c4cc(F)cc(F)c4)c(N4CCC(N)CC4)c3c2)c1O [Compound A-HCl]
Resp: 830

----------
Assignment: determine reported EC50 for the given compounds.
- STUDY_SYSTEM: human SSTR2 (Homo sapiens (Human))
- ASSAY_PROTOCOL: Functional cAMP assay for SSTR2 agonists
- CONDITION_INFO: inhibition of cAMP activities via human SST2R; CHO-K1 cells stably expressing human SSTR2

Req: Recall the reported EC50 of `Nc1c(/C=N/O)ccnc1-c1ccc2ncc(-c3cc(F)cc(F)c3)c(N3CC[C@@H]4NCCO[C@H]4C3)c2c1` when tested on human SSTR2 (Homo sapiens (Human)).
Resp: < 10 nM

Req: Recall the reported EC50 of `O/N=C/c1cccc(-c2ccc3ncc(-c4cc(F)cc(F)c4)c(N4CC[C@@H]5NCCO[C@H]5C4)c3c2)c1O` when tested on human SSTR2 (Homo sapiens (Human)).
Resp: < 10 nM

Req: Recall the reported EC50 of `Cc1cc(F)cc(-c2cnc3ccc(-c4cccc(C#N)c4O)c(F)c3c2N2CCC(N)CC2)c1` when tested on human SSTR2 (Homo sapiens (Human)).
Resp: < 10 nM

Req: Recall the reported EC50 of `CO/N=C/c1ccnc(-c2ccc3ncc(-c4cc(C)cc(F)c4)c(N4CC[C@@H]5NCCO[C@H]5C4)c3c2)c1N` when tested on human SSTR2 (Homo sapiens (Human)).
Resp: < 10 nM

----------
- STUDY_SYSTEM: human SSTR2 (Homo sapiens (Human), UniProt P30874)
- Sequence (P30874 whole entry): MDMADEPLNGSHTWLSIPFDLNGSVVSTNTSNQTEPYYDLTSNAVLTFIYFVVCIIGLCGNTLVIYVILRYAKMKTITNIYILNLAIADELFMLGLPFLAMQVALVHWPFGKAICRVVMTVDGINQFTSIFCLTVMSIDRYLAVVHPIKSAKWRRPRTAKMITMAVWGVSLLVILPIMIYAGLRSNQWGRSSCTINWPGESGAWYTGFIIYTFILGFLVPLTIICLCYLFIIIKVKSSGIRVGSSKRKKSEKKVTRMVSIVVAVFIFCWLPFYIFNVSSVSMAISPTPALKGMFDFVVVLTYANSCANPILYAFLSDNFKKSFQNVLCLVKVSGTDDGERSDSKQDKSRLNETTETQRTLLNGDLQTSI
- ASSAY_PROTOCOL: Functional cAMP assay for SSTR2 agonists
- CONDITION_INFO: inhibition of cAMP activities via human SST2R; CHO-K1 cells stably expressing human SSTR2
- Description: General overview: All five SSTR subtypes are Gi coupled G-protein coupled receptors (GPCRs) that lead to decreases in intracellular cyclic AMP (cAMP) when activated by an agonist. […] Human SSTR2 intracellular cAMP assay is described below. The human SSTR1, 3, 4 and 5 assays follow the same protocol of SSTR2. The cells are cultured at 37° C., 5% CO2 and 95% humidity. […] The time-resolved fluorescent signal is read with a Tecan M1000Pro multiplate reader. […]
pEC50: −log10 of the molar value.
Assignment: determine reported pEC50 for the given compounds.

Req: Note down pEC50 recorded for Cc1cc(F)cc(-c2cnc3ccc(-c4nccc(C#N)c4N)cc3c2N2CC[C@@H]3NCCO[C@H]3C2)c1 [Compound 1-4]
Resp: > 8.00

Req: Note down pEC50 recorded for N#Cc1cccc(-c2ccc3ncc(-c4cc(F)cc(F)c4)c(N4CCC(N)CC4)c3c2)c1O [Compound A]
Resp: > 8.00

Req: Note down pEC50 recorded for CO/N=C/c1ccnc(-c2ccc3ncc(-c4cc(F)cc(Cl)c4)c(N4CC[C@@H]5NCCO[C@H]5C4)c3c2)c1N [Compound 1-3]
Resp: > 8.00

Req: Note down pEC50 recorded for Cc1ccnc(-c2ccc3ncc(-c4cccc(F)c4)c(N4CC[C@@H]5NCCO[C@H]5C4)c3c2)c1N [Compound 1-8]
Resp: > 8.00

Req: Note down pEC50 recorded for N#Cc1ccnc(-c2ccc3ncc(-c4cc(F)cc(Cl)c4)c(N4CC[C@@H]5NCCO[C@H]5C4)c3c2)c1N [Compound 1-5]
Resp: > 8.00

Req: Note down pEC50 recorded for Cc1cc(F)cc(-c2cnc3cc(F)c(-c4cccc(C#N)c4O)cc3c2N2CCC(N)CC2)c1 [Compound 1-10]
Resp: > 8.00

Req: Note down pEC50 recorded for N#Cc1ccnc(-c2ccc3ncc(-c4cccc(F)c4)c(N4CC[C@@H]5NCCO[C@H]5C4)c3c2)c1N [Compound 1-7]
Resp: > 8.00

// provenance: patent US10464918B2
